# particulars: in n-butanol, 298.15 K
parameter: solubility (mole fraction)
Write the number on its own, no unit after it.

Tell me the measured solubility (mole fraction) of COC(=O)N(OC)c1ccccc1COc1ccn(-c2ccc(Cl)cc2)n1 , please.
0.0132

###

# particulars: in isopropanol, 298.15 K
parameter: solubility (mole fraction)
Write the number on its own, no unit after it.

Tell me the measured solubility (mole fraction) of COC(=O)N(OC)c1ccccc1COc1ccn(-c2ccc(Cl)cc2)n1 , please.
0.00687

###

# particulars: in isobutanol, 298.15 K
parameter: solubility (mole fraction)

Tell me the measured solubility (mole fraction) of COC(=O)N(OC)c1ccccc1COc1ccn(-c2ccc(Cl)cc2)n1 , please.
0.00758

###

# particulars: in ethanol, 293.15 K
parameter: solubility (mole fraction)
Write the number on its own, no unit after it.

Tell me the measured solubility (mole fraction) of COC(=O)N(OC)c1ccccc1COc1ccn(-c2ccc(Cl)cc2)n1 , please.
0.00866

###

# particulars: in n-butanol, 283.15 K
parameter: solubility (mole fraction)
Write the number on its own, no unit after it.

Tell me the measured solubility (mole fraction) of COC(=O)N(OC)c1ccccc1COc1ccn(-c2ccc(Cl)cc2)n1 , please.
0.00534

###

# particulars: in n-butanol, 308.15 K
parameter: solubility (mole fraction)

Tell me the measured solubility (mole fraction) of COC(=O)N(OC)c1ccccc1COc1ccn(-c2ccc(Cl)cc2)n1 , please.
0.0343

###

# particulars: in cyclohexane, 308.15 K
parameter: solubility (mole fraction)
Write the number on its own, no unit after it.

Tell me the measured solubility (mole fraction) of COC(=O)N(OC)c1ccccc1COc1ccn(-c2ccc(Cl)cc2)n1 , please.
0.00609

###

# particulars: in cyclohexane, 283.15 K
parameter: solubility (mole fraction)

Tell me the measured solubility (mole fraction) of COC(=O)N(OC)c1ccccc1COc1ccn(-c2ccc(Cl)cc2)n1 , please.
0.000942

###

# particulars: in ethanol, 303.15 K
parameter: solubility (mole fraction)
Write the number on its own, no unit after it.

Tell me the measured solubility (mole fraction) of COC(=O)N(OC)c1ccccc1COc1ccn(-c2ccc(Cl)cc2)n1 , please.
0.0184

###

# particulars: in n-butanol, 303.15 K
parameter: solubility (mole fraction)
Write the number on its own, no unit after it.

Tell me the measured solubility (mole fraction) of COC(=O)N(OC)c1ccccc1COc1ccn(-c2ccc(Cl)cc2)n1 , please.
0.0214

###

# particulars: in ethanol, 308.15 K
parameter: solubility (mole fraction)
Write the number on its own, no unit after it.

Tell me the measured solubility (mole fraction) of COC(=O)N(OC)c1ccccc1COc1ccn(-c2ccc(Cl)cc2)n1 , please.
0.0326

###

# particulars: in cyclohexane, 303.15 K
parameter: solubility (mole fraction)

Tell me the measured solubility (mole fraction) of COC(=O)N(OC)c1ccccc1COc1ccn(-c2ccc(Cl)cc2)n1 , please.
0.00448

###

# particulars: in ethanol, 288.15 K
parameter: solubility (mole fraction)
Write the number on its own, no unit after it.

Tell me the measured solubility (mole fraction) of COC(=O)N(OC)c1ccccc1COc1ccn(-c2ccc(Cl)cc2)n1 , please.
0.00601

###

# particulars: in n-butanol, 293.15 K
parameter: solubility (mole fraction)
Write the number on its own, no unit after it.

Tell me the measured solubility (mole fraction) of COC(=O)N(OC)c1ccccc1COc1ccn(-c2ccc(Cl)cc2)n1 , please.
0.00916
